tested on: XF 498 CNS; assay: NCI tumour cell line growth inhibition, 48 h
Parameter Measured: TGI

>  <Molecule>
CC(=O)NNc1nc(C)c(C(/C=C/c2ccc(Cl)cc2)=N\NS(=O)(=O)c2ccc(C)cc2)s1

>  <TGI>
> 100 µM

$$$$
>  <Molecule>
NC(=O)c1csc(C2C=CC(CO)O2)n1 (stereo not given)

>  <TGI>
> 100 µM

$$$$
>  <Molecule>
COc1cc(-c2oc3c(OC)c(OC)cc(O)c3c(=O)c2OC)ccc1O

>  <TGI>
16.1 µM

$$$$

Provide measured TGI value, entry: NC(=O)N/N=C(\Cc1nc2ccc(C(=O)c3ccccc3)cc2[nH]c1=O)C(=O)Nc1ccc(Br)cc1
> 100 µM

Write down TGI measured for item CCC(=O)OC1CCn2c1nc1c2C(=O)C(C)=C(N2CC2)C1=O (stereo not given)
0.0973 µM

Identify the reported TGI for the following entry. CCOc1ccccc1NC(=O)CCc1nnc2s/c(=C\CCc3ccccc3)c(=O)n12
> 100 µM

Quote TGI reported for C[n+]1c2ccccc2c(CNC(CCC(N)=O)C(=O)O)c2ccccc21 (stereo not given) please.
3.81 µM

Determine from records and report TGI for N#C/C(=C/c1cccnc1)C(=O)c1ccccc1
> 100 µM

Please give the documented TGI of COc1ccc(NC(=O)C(=O)NNC(=O)c2sc(NNC(C)=O)nc2C)c([N+](=O)[O-])c1
> 100 µM

Provide only the value of recorded TGI for C#CCN1CCN(C(=S)N/N=C(\C)c2ccccn2)CC1
2.72 µM

Read off the recorded TGI for C/C(=N\NC(=O)CC(=O)Nc1ccc(Cl)cc1)c1cc2ccccc2oc1=O
> 100 µM

Write down TGI measured for item CC1C=C(OC(=O)c2ccccc2)C(=O)C(n2cc(F)c(=O)n(C(=O)c3ccccc3)c2=O)O1 (stereo not given)
73.3 µM

Give TGI for O=[N+]([O-])c1ccc(NC2OCC(O)C(O)C2O)cc1 (stereo not given)
> 100 µM

For the molecule Cn1cc2c(n1)c(N/N=C/c1ccccc1)nn1nnnc21 , give its measured TGI value.
> 100 µM

Identify measured TGI associated with C=CCNC1=C(C(=O)OCC)C(=O)CO1
> 100 µM
